tested on: T1, recombinant human DLL4, C-terminally His-tagged extracellular domain (R&D Systems) (human, UniProt Q9NR61 25-522, biotinylated where used in competition ELISA, AlphaScreen and on SA chips)
T1 construct: also called rhDLL4; hDLL4; not shown: C-terminal His tag
T1 sequence (Q9NR61 25-522): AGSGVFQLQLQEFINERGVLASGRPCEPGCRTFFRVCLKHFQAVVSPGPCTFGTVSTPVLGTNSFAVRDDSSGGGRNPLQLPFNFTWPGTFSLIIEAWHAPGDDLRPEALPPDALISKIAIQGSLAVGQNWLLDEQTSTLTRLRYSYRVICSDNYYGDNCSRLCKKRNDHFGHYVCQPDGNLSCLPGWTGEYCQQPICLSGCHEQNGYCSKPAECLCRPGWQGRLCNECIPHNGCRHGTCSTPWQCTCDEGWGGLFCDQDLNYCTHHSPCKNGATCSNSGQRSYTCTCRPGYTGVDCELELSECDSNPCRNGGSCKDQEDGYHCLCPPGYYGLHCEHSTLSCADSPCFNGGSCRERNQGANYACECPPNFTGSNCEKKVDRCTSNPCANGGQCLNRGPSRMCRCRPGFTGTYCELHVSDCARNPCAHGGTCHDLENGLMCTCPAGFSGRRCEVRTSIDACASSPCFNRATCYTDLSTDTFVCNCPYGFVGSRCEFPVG
assay notes: hDLL4/hNotch1-Fc AlphaScreen, periplasmic extract
Quick list: Alpha Screen hDLL4 % inhibition per entry.
reported metric: Alpha Screen hDLL4 % inhibition

- binder: "DLLBII17B03 (VHH, tested as periplasmic extract; also called DLLBII17B3; not shown: C-terminal c-myc tag and His6 tag) VHH: EVQLVESGGGLVQPGGSLRLSCAASGFTFENYALGWFRQAPGKEREWVSCISSSDGTTYYADSVKGRFTISRDNVKNTVYLQMNRLKPEDTAIYYCALSLGSSWCAYDYWGQGTQVTVSS"
  reported metric: "Alpha Screen hDLL4 % inhibition"
  result: "77%"
- binder: "DLLBII33C05 (VHH, tested as periplasmic extract; also called DLLBII33C5; not shown: C-terminal c-myc tag and His6 tag) VHH: EVQLVESGGGLVQAGGSLRLSCAASGFTLDNYVIGWFRQAPGKEREEVSCISSSGGSTDYLDSVKGRFTISRDNAKNTVYLQMNSLKPEDTAVYYCAADSLPCYYDKMVYDYWGQGTQVTVSS"
  reported metric: "Alpha Screen hDLL4 % inhibition"
  result: "75%"
